target: hSSB1 (Homo sapiens, UniProt Q9BQ15 Q9BQ15:1-211); assay: SPR
Sequence (Q9BQ15 whole entry, one chain of several): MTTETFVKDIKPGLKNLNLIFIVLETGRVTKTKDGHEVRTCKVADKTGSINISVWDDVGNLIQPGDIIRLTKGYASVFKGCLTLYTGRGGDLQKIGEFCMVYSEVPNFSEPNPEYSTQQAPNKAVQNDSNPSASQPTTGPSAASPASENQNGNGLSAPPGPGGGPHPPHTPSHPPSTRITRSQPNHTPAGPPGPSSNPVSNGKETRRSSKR
Measured binding signal of individual entries
experimental readout: binding signal

>>> observed_measurement("CAGAGGCAGCAGUACGAC (ssRNA, 2'-OMe all, full PS) [LSA_ATG 3' truncation 18 nt]")
"0.64 normalized Rmax"
>>> observed_measurement("GGCGAAUGAGACUUCUCUUA (ssRNA, 2'-OMe all, full PS) [DKLS693540 (SEQ 27)]")
"1.64 normalized Rmax"
>>> observed_measurement("UCCUGGAUCCUUCACCAAUG (ssRNA, 2'-OMe all, full PS) [DKLS687192 (SEQ 28)]")
"1.08 normalized Rmax"
>>> observed_measurement("GUGCAUGGAAUCACGGAGU (ssRNA, 2'-OMe all, full PS) [Open_A 3' truncation 19 nt]")
"1.24 normalized Rmax"
>>> observed_measurement("UCUCCCAGCAUGUGCCAU (ssRNA, full PS) [DKLS658030 (SEQ 8)]")
"0.51 normalized Rmax"
>>> observed_measurement("CCAGUGAGCCG (ssRNA, 2'-OMe all, full PS) [In3E3 3' truncation 11 nt]")
"0.15 normalized Rmax"
>>> observed_measurement("CAGAGGCAGCAGUACGA (ssRNA, 2'-OMe all, full PS) [LSA_ATG 3' truncation 17 nt]")
"1.19 normalized Rmax"
